Here's what we have: pIC50 numbers for ROCK1 (Homo sapiens (Human)).
Scale: pIC50 equals -log10([C]), with [C] in mol/L.

Examples from the recorded data:
1) O=C(Nc1ccc(-c2n[nH]c(=O)c3ccccc23)cc1)c1ccc(N2CCCCC2)cc1 [Example 61]    7.31
2) O=C(Nc1ccc(-c2n[nH]c(=O)c3ccccc23)cc1)c1ccccc1 [Example 67]    6.76
3) O=C(Oc1ccc(-c2n[nH]c(=O)c3ccccc23)cc1)N1CCC(c2ccccc2)C1 (stereo not shown) [Example 69]    4.30

Moving on to another molecule below.
Problem: Name the reported pIC50 value associated with the molecule O=C(Nc1ccc(-c2n[nH]c(=O)c3ccccc23)cc1)N1CCc2ccccc21 [Example 76]
Result: 7.70

====

# Target or system: ROCK1 (Homo sapiens (Human))
# Sequence (Q13464 whole entry, species assumed): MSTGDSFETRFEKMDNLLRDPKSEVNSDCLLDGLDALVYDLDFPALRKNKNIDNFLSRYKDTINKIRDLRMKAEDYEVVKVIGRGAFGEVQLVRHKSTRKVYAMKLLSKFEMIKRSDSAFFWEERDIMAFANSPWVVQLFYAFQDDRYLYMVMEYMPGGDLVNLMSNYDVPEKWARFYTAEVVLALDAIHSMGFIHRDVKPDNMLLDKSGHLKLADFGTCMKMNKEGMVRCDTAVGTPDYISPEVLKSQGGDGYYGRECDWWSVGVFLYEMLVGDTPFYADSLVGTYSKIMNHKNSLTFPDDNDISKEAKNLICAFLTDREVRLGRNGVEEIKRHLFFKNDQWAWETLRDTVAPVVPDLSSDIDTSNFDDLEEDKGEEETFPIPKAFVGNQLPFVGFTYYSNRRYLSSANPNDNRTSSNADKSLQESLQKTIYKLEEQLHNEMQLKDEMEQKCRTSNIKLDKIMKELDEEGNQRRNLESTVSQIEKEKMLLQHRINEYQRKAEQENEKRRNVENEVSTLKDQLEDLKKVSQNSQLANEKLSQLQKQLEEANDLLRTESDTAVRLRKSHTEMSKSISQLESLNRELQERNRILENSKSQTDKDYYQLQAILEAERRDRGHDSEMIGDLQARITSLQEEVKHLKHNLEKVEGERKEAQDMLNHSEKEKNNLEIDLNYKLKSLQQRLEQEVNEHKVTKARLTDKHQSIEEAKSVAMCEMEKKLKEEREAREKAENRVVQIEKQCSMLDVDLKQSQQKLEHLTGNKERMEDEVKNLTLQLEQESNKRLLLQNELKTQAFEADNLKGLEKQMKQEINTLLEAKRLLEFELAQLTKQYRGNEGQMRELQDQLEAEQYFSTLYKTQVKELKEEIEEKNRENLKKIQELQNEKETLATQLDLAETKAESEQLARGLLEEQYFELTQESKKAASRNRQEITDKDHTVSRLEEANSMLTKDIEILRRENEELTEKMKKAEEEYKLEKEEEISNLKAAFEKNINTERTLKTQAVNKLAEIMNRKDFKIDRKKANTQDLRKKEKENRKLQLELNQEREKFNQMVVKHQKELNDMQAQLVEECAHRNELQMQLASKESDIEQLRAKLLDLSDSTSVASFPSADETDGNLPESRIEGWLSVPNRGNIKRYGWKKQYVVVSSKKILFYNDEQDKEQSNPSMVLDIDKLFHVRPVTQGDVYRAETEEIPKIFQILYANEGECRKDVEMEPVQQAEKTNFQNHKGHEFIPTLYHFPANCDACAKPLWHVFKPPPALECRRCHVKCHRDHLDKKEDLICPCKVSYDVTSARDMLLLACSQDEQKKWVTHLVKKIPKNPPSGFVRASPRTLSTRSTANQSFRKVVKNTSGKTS
// values below are reported IC50
The reply should contain only the number, in µM.

Examples from the recorded data:
1) CN(C)c1ccc(C(=O)Nc2ccc(-c3n[nH]c(=O)c4ccccc34)cc2)cc1 [Example 58]    0.035
2) O=C(Nc1ccc(-c2n[nH]c(=O)c3ccccc23)cc1)c1csc(-c2ccc(C(F)(F)F)cc2)n1 [Example 48]    0.67
3) O=C(Cc1ccc(-c2n[nH]c(=O)c3ccccc23)cc1)N1CCCc2ccccc21 [Example 34]    11.9

Moving on to another molecule below.
Problem: Name the reported IC50 value associated with the molecule COC[C@@H]1CCCN1C(=O)Cc1ccc(-c2n[nH]c(=O)c3ccccc23)cc1 [Example 13]
Result: 16.2

====

Here's what we have: IC50 numbers for ROCK2 (Homo sapiens (Human)).

Examples from the recorded data:
1. O=C(Oc1ccc(-c2n[nH]c(=O)c3ccccc23)cc1)N1CCC(c2ccccc2)C1 (stereo not shown) [Example 69]    894 nM
2. O=C(Nc1ccc(-c2n[nH]c(=O)c3ccccc23)cc1)c1ccccc1 [Example 67]    14 nM
3. COC[C@@H]1CCCN1C(=O)Cc1ccc(-c2n[nH]c(=O)c3ccccc23)cc1 [Example 13]    9730 nM

Problem: Enter reported IC50 observed with ROCK2 (Homo sapiens (Human)) for O=C(Nc1ccc(-c2n[nH]c(=O)c3ccccc23)cc1)N1CCc2ccccc21 [Example 76]
Sequence (O75116 whole entry, species assumed): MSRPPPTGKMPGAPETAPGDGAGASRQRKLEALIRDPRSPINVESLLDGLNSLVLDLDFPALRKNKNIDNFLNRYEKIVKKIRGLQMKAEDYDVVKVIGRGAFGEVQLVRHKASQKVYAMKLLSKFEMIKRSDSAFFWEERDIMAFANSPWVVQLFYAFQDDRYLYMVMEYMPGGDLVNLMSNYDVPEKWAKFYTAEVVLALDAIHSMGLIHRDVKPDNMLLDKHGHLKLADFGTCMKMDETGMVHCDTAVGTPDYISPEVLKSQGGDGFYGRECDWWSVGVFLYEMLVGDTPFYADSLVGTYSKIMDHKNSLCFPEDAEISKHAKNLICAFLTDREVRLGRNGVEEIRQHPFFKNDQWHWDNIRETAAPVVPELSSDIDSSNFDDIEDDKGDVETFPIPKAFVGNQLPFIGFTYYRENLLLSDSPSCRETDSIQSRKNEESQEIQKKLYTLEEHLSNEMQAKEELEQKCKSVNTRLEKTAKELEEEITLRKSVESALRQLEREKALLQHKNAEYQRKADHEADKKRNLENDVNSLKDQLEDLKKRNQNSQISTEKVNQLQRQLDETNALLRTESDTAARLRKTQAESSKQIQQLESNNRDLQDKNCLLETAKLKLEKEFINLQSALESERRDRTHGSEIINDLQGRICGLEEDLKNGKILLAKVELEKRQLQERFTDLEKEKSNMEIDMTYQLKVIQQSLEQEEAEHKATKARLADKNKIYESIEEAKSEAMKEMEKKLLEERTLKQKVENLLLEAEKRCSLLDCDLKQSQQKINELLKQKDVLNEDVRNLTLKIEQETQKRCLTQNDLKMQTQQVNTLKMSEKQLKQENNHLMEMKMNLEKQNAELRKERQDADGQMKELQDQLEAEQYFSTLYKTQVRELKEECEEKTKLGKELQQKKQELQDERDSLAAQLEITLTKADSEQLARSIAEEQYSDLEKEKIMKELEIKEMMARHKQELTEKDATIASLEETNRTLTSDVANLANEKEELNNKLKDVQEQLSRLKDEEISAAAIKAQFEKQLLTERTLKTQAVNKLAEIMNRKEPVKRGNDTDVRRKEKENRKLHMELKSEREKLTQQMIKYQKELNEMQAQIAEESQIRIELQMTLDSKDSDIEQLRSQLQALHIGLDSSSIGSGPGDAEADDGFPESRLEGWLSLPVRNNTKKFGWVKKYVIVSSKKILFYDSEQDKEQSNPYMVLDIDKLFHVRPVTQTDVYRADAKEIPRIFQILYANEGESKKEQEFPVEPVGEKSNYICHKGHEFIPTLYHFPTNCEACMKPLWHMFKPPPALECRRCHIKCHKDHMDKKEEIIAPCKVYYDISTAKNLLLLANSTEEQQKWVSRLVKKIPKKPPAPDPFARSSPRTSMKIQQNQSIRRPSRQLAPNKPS
Result: 1.2 nM
